- System: human Factor 11 mRNA
- Assay Procedure: Antisense inhibition of human Factor 11 in HepG2 cells by microwalk gapmers, lipofectin, 75 nM (Example 3)
- Format: cell-based
- Condition Info: HepG2 cells, lipofectin, gapmers targeted to nucleobases 1275 to 1318 of SEQ ID NO: 1
Strand notation (5' to 3'): a small letter for the sugar, then the base; units joined by * are phosphorothioate-linked, units joined directly phosphodiester-linked; [ ] holds rarer units or linkages, { } end groups; capitals alone tell only the bases. e = 2'-O-(2-methoxyethyl) (MOE); [5mC] = 5-methylcytosine; d = 2'-deoxy (DNA)
This section presents substances with their documented % inhibition values.
The figure you give is taken to be in %; do not add the unit.

417016 (antisense e[5mC]*eA*dG*d[5mC]*dG*dG*dA*d[5mC]*dG*dG*d[5mC]*dA*dT*dT*dG*eG*eT*eG*e[5mC]*eA) [compound 417016] : 85
417013 (antisense e[5mC]*eG*dG*dA*d[5mC]*dG*dG*d[5mC]*dA*dT*dT*dG*dG*dT*dG*e[5mC]*eA*e[5mC]*eA*eG) [compound 417013] : 86
416853 (antisense eT*eT*eG*eG*eT*dG*d[5mC]*dA*d[5mC]*dA*dG*dT*dT*dT*d[5mC]*eT*eG*eG*e[5mC]*eA) [compound 416853] : 91
416926 (antisense eT*eG*eG*dT*dG*d[5mC]*dA*d[5mC]*dA*dG*dT*dT*dT*d[5mC]*dT*dG*dG*e[5mC]*eA*eG) [compound 416926] : 93

Now examine the next entry.
INPUT: Item under review: 416866 (antisense CTGGCAGCGGACGGCATTGG; 5-10-5 gapmer, further chemistry not given here) [compound 416866] . Reported % inhibition?
OUTPUT: 88

* * *

- Assay Procedure: Tolerability in CD1 mice: kidney function, BUN, creatinine (Example 33)
- Condition Info: plasma, 50 mg/kg s.c. twice a week, 4 weeks
Measured Quantity: Creatinine (mg/dL)
The figure you give is taken to be in mg/dL; do not add the unit.

# example entries with known answers
ISIS 416850: MOE gapmer, nucleobases 1275 to 1318 of SEQ ID NO: 1 (Table 8) (antisense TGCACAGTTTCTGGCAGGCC; MOE gapmer, wing and gap sizes not given here) : 0.22
ISIS 416858: MOE gapmer, nucleobases 1275 to 1318 of SEQ ID NO: 1 (Table 8) (antisense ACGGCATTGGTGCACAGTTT; MOE gapmer, wing and gap sizes not given here) : 0.23
ISIS 416864: MOE gapmer, nucleobases 1275 to 1318 of SEQ ID NO: 1 (Table 8) (antisense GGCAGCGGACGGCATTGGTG; MOE gapmer, wing and gap sizes not given here) : 0.22
ISIS 416838: MOE gapmer, nucleobases 1018 to 1042 of SEQ ID NO: 1 (Table 6) (antisense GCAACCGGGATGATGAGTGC; MOE gapmer, wing and gap sizes not given here) : 0.27

Now examine the next entry.
INPUT: Item under review: ISIS 417002: MOE gapmer, nucleobases 1275 to 1318 of SEQ ID NO: 1 (Table 8) (antisense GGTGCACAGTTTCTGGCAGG; MOE gapmer, wing and gap sizes not given here) . Reported Creatinine?
OUTPUT: 0.16

* * *

- Assay Procedure: Hematology assays in cynomolgus monkeys (Example 45)
- Type: in vivo
- Condition Info: day 57
Measured Quantity: basophils
Please give the number followed by its unit.

ISIS 416850: MOE gapmer, nucleobases 1275 to 1318 of SEQ ID NO: 1 (Table 8) (antisense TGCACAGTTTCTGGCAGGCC; MOE gapmer, wing and gap sizes not given here) : 0.4%

INPUT: Item under review: ISIS 416864: MOE gapmer, nucleobases 1275 to 1318 of SEQ ID NO: 1 (Table 8) (antisense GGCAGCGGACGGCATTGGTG; MOE gapmer, wing and gap sizes not given here) . Reported basophils?
OUTPUT: 0.3%
